# Test system: TDF;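 also: TDF is a line of transformed human dermal fibroblasts of mesenchymal origin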
# Protocol notes: H1.0 immunofluorescence intensity relative to DMSO (% of DMSO); higher = stronger H1.0 induction, active = 120 or more
# Assay context: concentration: 10 µM; 24 h
For each of the compounds below, state its H1.0 immunofluorescence intensity.
Would you mind answering with just the numeric figure?

Query: Returns the measured H1.0 immunofluorescence intensity for the input compound. Input: CN(C)CCC=C1c2ccccc2COc2ccc(CC(=O)O)cc21
Response: 90.3

Query: Consider the compound shown here: CC12C=CC(=O)C=C1CCC1C2C(=O)CC2(C)C1CCC2(O)C(=O)CO (stereo not given) What is its recorded H1.0 immunofluorescence intensity?
Response: 86.2

Query: // lookup H1.0 immunofluorescence intensity for CC(=O)OC1CCC2(C)C(C1)C(OC(C)=O)CC1C2CC2C3CN4CC(C)CCC4C(C)C3CCC21O (stereo not given)
Response: 96.2

Query: H1.0 immunofluorescence intensity lookup needed for Nc1ccc(N2C(=O)c3ccccc3C2=O)c(Cl)c1 [N-(4-Amino-2-chlorophenyl)phthalimide] , thanks.
Response: 94.3

Query: Entry O=c1c(O)c(-c2ccc(O)cc2O)oc2cc(O)cc(O)c12 [Morine] has what H1.0 immunofluorescence intensity?
Response: 95

Query: Fill in: H1.0 immunofluorescence intensity of CC(Cc1ccc(O)c(O)c1)(NN)C(=O)O.O (stereo not given) is ___
Response: 99.8

Query: Fill in the blank: the reported H1.0 immunofluorescence intensity of Cc1cc(C2CCCCC2)n(O)c(=O)c1.NCCO is ____.
Response: 93.2

Query: Requested read-out: H1.0 immunofluorescence intensity. Entry: CC(C)C1NC(=O)C(CCCCN)NC(=O)C(Cc2c[nH]c3ccccc23)NC(=O)C(Cc2ccc(O)cc2)NC(=O)C(C)N(C)C(=O)C(Cc2ccccc2)NC1=O (stereo not given) [Seglitide]
Response: 102

Query: Entry Cc1cc(C)c(NC(=O)CC(CC(=O)[O-])c2cccc3ccccc23)c(C(=O)N2CCC3(CCCC3)CC2)c1.[Na+] (stereo not given) has what H1.0 immunofluorescence intensity?
Response: 101

Query: What value of H1.0 immunofluorescence intensity has been reported for the following compound? CC(=O)C1=C(O)C=C2Oc3c(C(C)=O)c(O)c(C)c(O)c3C2(C)C1=O (single isomer, unassigned; (+)) [(+)-Usnic acid]
Response: 96.7

Query: Fill in the blank: the reported H1.0 immunofluorescence intensity of CN(C)CCCOC1C(C(O)CO)OC2OC(C)(C)OC21.Cl (stereo not given) [Amiprilose hydrochloride] is ____.
Response: 82.4

Query: Which H1.0 immunofluorescence intensity reading was recorded for the compound Cc1cc(=O)oc2cc(O)ccc12 ?
Response: 102

Query: Any idea what its H1.0 immunofluorescence intensity is? The compound is CCOC(=O)C1=C(C)NC(C)=C(C(=O)OCC)C1c1ccccc1C=CC(=O)OC(C)(C)C
Response: 98.1

Query: H1.0 immunofluorescence intensity lookup needed for CCOC(=O)N1CCC(=C2c3ccc(Cl)cc3CCc3cccnc32)CC1 , thanks.
Response: 98.3

Query: Field request: H1.0 immunofluorescence intensity | item: Cc1ccc(=O)n(-c2ccccc2)c1
Response: 90.3

Query: I have this compound here, CCOP(=O)(OCC)C(=Cc1cc(C(C)(C)C)c(O)c(C(C)(C)C)c1)P(=O)(OCC)OCC , and I need its recorded H1.0 immunofluorescence intensity.
Response: 93.9

Query: Report H1.0 immunofluorescence intensity for CC(=O)O.NC(N)=NN=Cc1c(Cl)cccc1Cl [Guanabenz acetate] please.
Response: 106

Query: Name the reported H1.0 immunofluorescence intensity value associated with the compound CNC(=O)c1cc2c(cn1)[nH]c1ccccc12 [N-Methyl-beta-carboline-3-carboxamide]
Response: 87.9

Query: Entry CC(C)c1cc(/C=C(\C#N)C(=O)NCCCc2ccccc2)cc(C(C)C)c1O has what H1.0 immunofluorescence intensity?
Response: 97.9

Query: H1.0 immunofluorescence intensity for OC[C@H]1NC[C@@H](O)[C@@H]1O ?
Response: 88.6

Query: What value of measured H1.0 immunofluorescence intensity is listed for Nc1nc(=O)c2ncc(=O)[nH]c2[nH]1 ?
Response: 92.2

Query: Request the reported H1.0 immunofluorescence intensity associated with Oc1cccc(-c2nc(N3CCOCC3)c3oc4ncccc4c3n2)c1
Response: 88

Query: I have this compound here, O=c1ccc2ccc(O)c(O)c2o1 [Daphnetin] , and I need its recorded H1.0 immunofluorescence intensity.
Response: 100

Query: Would you kindly share the measured H1.0 immunofluorescence intensity for COc1ccc2cc(C(C)C(=O)O)ccc2c1 (stereo not given) ?
Response: 98.1

Query: Look up H1.0 immunofluorescence intensity for this compound: O=C(Nc1nc2ccccc2n1CCN1CCOCC1)c1cccc([N+](=O)[O-])c1
Response: 91.2

Query: Need H1.0 immunofluorescence intensity of N[C@@H](COP(=O)(O)O)C(=O)O , thanks.
Response: 94.9

Query: # get_value(readout='H1.0 immunofluorescence intensity', item= CCCCCCCCCCCC(CC1OC(=O)C1CCCCCC)OC(=O)C(CC(C)C)NC=O (stereo not given) [Tetrahydrolipistatin] )
Response: 99.2

Query: Look up H1.0 immunofluorescence intensity: COc1ccc(Br)cc1S(=O)(=O)NC(=O)/C=C/c1ccccc1Cc1ccc2ccccc2c1
Response: 90.2

Query: What value of measured H1.0 immunofluorescence intensity is listed for O=c1[nH]c2cc([N+](=O)[O-])c([N+](=O)[O-])cc2[nH]c1=O ?
Response: 91.9

Query: Record request: H1.0 immunofluorescence intensity value, item O=c1cc(N2CCOCC2)nc2c3ccccc3ccn12
Response: 94.7

Query: For CC(C)(Oc1ccc(C2CC2(Cl)Cl)cc1)C(=O)O (stereo not given) [Ciprofibrate] , what is its reported H1.0 immunofluorescence intensity?
Response: 97.8

Query: Recorded H1.0 immunofluorescence intensity of CC(O)(P(=O)([O-])O)P(=O)([O-])O [Etidronate] , please.
Response: 102

Query: H1.0 immunofluorescence intensity for FC(F)(F)c1ccccc1-n1ccnc1 [1-[2-(Trifluoromethyl)phenyl]imidazole] ?
Response: 96.5

Query: Entry CC(=O)Nc1ccc(CC(=O)O)cc1 : reported H1.0 immunofluorescence intensity = ?
Response: 97.2

Query: # query: H1.0 immunofluorescence intensity of entry FC(F)(F)c1ccc(CNc2ccc(Cc3c[nH]c4ncccc34)cn2)cc1
Response: 108
